Biological target: T1, SNTA1, Q13424
T1 sequence (Q13424 82-180, limits assumed, looked up): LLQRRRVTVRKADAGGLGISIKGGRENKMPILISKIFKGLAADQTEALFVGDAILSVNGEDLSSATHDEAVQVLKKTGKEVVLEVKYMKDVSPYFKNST
Assay: holdup assay
Parameters: key: below the threshold = too weak to quantify, mostly under pKd 3.1 to 4
Settings: plain residues with an end cap or a label only (N-terminal biotin on a linker: ado-ado)
quantity.kind: pKd
# output: bare number, no unit

1. DTKNYKQTSV [CRIPT, Q9P021] | 4.74
2. PPGKHLVTEV [KCNA7, Q96RP8] | 3.95
3. MQHQRTHTRV [ZSCAN30, Q86W11] | 4.23
4. KRPEMTSSSV [MUC3A, MUC3B, Q02505;Q9H195] | 1.76
5. ARESQKVSHV [FAM110B, Q8TC76] | 4.25

Now for a further binder.
Q. State, in one line, measured pKd of SRSVVESDEL [MYPN, Q86TC9]
A. 3.6
